Measured protein stability index accompanies every entry in the list below.
B1: WDFY1 (parent)
chain: LLIPKEDGVITASEDRTIRVWLKR

- Variants of: B1
- Test Summary: protein stability index of a GFP-peptide fusion (GPS, HEK-293T) (PSI 1-6); higher = more stable;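 further: lentivirally expressed fusions sorted by FACS into six bins by GFP to DsRed ratio, PSI derived from sequencing read proportions per bin multiplied by bin number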
- Condition: c terminus: a fixed tail appended
Assay Readout: protein stability index

> print(dat)
              sequence.chain  measured.value
 1  LLIPKEDPVITASEDRTIRVWLKR            2.41
 2  LLIPKEDGVIRASEDRTIRVWLKR             3.1
 3  LLIPKEDGVITASEDRTIRVWLKA            1.84
 4  LLIPKEDGVITASEDRTIRVMLKR            2.06
 5  LLIPKEDEVITASEDRTIRVWLKR            1.31
 6  LLIPKEDGVITASEDTTIRVWLKR            1.65
 7  LLIPAEDGVITASEDRTIRVWLKR            2.13
 8  LLIPKETGVITASEDRTIRVWLKR            2.37
 9  LLIPKEDGVITASEDRTIGVWLKR             1.8
10  LLIPKEDGVITASEDRTIRRWLKR            1.64
11  LLIPKEDGVITASEDHTIRVWLKR             1.6
